pIC50 values, listed per item
# METHOD: Antifibrotic activity against mouse Mlg2908 cells assessed as reduction in cell viability measured after 72 hrs by MTT assay
# Assay type: functional, cell-based
pIC50: −log10 of the molar value.
RECORDED METRIC: pIC50

[
  {
    "COMPOUND": "COc1ncc(-c2cc(OCC3(C)COC3)c3ncnc(C)c3c2)cc1NS(=O)(=O)c1ccc(F)cc1F",
    "RECORDED METRIC": "pIC50",
    "RELATIONAL OPERATOR": "=",
    "VALUE REPORTED": 8.30
  },
  {
    "COMPOUND": "Cc1c(Cn2c(C)nc3c(C(=O)O)cc(N4CCOCC4)cc32)cccc1C(F)(F)F [GSK-2636771]",
    "RECORDED METRIC": "pIC50",
    "RELATIONAL OPERATOR": "<",
    "VALUE REPORTED": 4.70
  },
  {
    "COMPOUND": "COc1ncc(-c2cc(OC)c3ncnc(C)c3c2)cc1NS(=O)(=O)c1ccc(F)cc1F",
    "RECORDED METRIC": "pIC50",
    "RELATIONAL OPERATOR": "=",
    "VALUE REPORTED": 6.89
  },
  {
    "COMPOUND": "COc1ncc(-c2cc(OC(F)F)c3ncnc(C)c3c2)cc1NS(=O)(=O)c1ccc(F)cc1F",
    "RECORDED METRIC": "pIC50",
    "RELATIONAL OPERATOR": "=",
    "VALUE REPORTED": 6.89
  },
  {
    "COMPOUND": "COc1ncc(-c2cc(OC3CCOCC3)c3nc(N)nc(C)c3c2)cc1NS(=O)(=O)c1ccc(F)cc1F",
    "RECORDED METRIC": "pIC50",
    "RELATIONAL OPERATOR": "=",
    "VALUE REPORTED": 6.85
  },
  {
    "COMPOUND": "COc1ccc(-c2cc(OC3CCOCC3)c3ncnc(C)c3c2)cn1",
    "RECORDED METRIC": "pIC50",
    "RELATIONAL OPERATOR": "=",
    "VALUE REPORTED": 4.77
  },
  {
    "COMPOUND": "COc1ncc(-c2cc(OCC3CCOC3)c3ncnc(C)c3c2)cc1NS(=O)(=O)c1ccc(F)cc1F (configuration not stated)",
    "RECORDED METRIC": "pIC50",
    "RELATIONAL OPERATOR": "=",
    "VALUE REPORTED": 8.40
  },
  {
    "COMPOUND": "COc1ncc(-c2cc(OCC3CC3)c3ncnc(C)c3c2)cc1NS(=O)(=O)c1ccc(F)cc1F",
    "RECORDED METRIC": "pIC50",
    "RELATIONAL OPERATOR": "=",
    "VALUE REPORTED": 7.70
  },
  {
    "COMPOUND": "CC[C@H](Nc1ncnc2[nH]cnc12)c1nc2cccc(F)c2c(=O)n1-c1ccccc1 [IDELALISIB]",
    "RECORDED METRIC": "pIC50",
    "RELATIONAL OPERATOR": "<",
    "VALUE REPORTED": 4.70
  },
  {
    "COMPOUND": "COc1ncc(-c2cc(OCC3CCN(C)CC3)c3ncnc(C)c3c2)cc1NS(=O)(=O)c1ccc(F)cc1F",
    "RECORDED METRIC": "pIC50",
    "RELATIONAL OPERATOR": "=",
    "VALUE REPORTED": 7.09
  },
  {
    "COMPOUND": "COc1ncc(-c2cc(OC3CCCC3)c3ncnc(C)c3c2)cc1NS(=O)(=O)c1ccc(F)cc1F",
    "RECORDED METRIC": "pIC50",
    "RELATIONAL OPERATOR": "=",
    "VALUE REPORTED": 7.82
  },
  {
    "COMPOUND": "COc1ncc(-c2ccc3nccc(-c4ccnnc4)c3c2)cc1NS(=O)(=O)c1ccc(F)cc1F [OMIPALISIB]",
    "RECORDED METRIC": "pIC50",
    "RELATIONAL OPERATOR": "=",
    "VALUE REPORTED": 8.40
  },
  {
    "COMPOUND": "COc1ncc(-c2cc(OC3CCOCC3)c3ncnc(C)c3c2)cc1NS(=O)(=O)c1ccc(F)cc1F",
    "RECORDED METRIC": "pIC50",
    "RELATIONAL OPERATOR": "=",
    "VALUE REPORTED": 8.52
  },
  {
    "COMPOUND": "COc1ncc(-c2cc(OC3CCOC(C)(C)C3)c3ncnc(C)c3c2)cc1NS(=O)(=O)c1ccc(F)cc1F (configuration not stated)",
    "RECORDED METRIC": "pIC50",
    "RELATIONAL OPERATOR": "=",
    "VALUE REPORTED": 8.70
  },
  {
    "COMPOUND": "Cc1nc(NC(=O)N2CCC[C@H]2C(N)=O)sc1-c1ccnc(C(C)(C)C(F)(F)F)c1 [ALPELISIB]",
    "RECORDED METRIC": "pIC50",
    "RELATIONAL OPERATOR": "=",
    "VALUE REPORTED": 5.46
  },
  {
    "COMPOUND": "C[C@H](NC(=O)c1c(N)nn2cccnc12)c1cc2cccc(C#Cc3cnn(C)c3)c2c(=O)n1-c1ccccc1 [EGANELISIB]",
    "RECORDED METRIC": "pIC50",
    "RELATIONAL OPERATOR": "=",
    "VALUE REPORTED": 6.01
  },
  {
    "COMPOUND": "COc1ncc(-c2cc(OC3CCN(C)CC3)c3ncnc(C)c3c2)cc1NS(=O)(=O)c1ccc(F)cc1F",
    "RECORDED METRIC": "pIC50",
    "RELATIONAL OPERATOR": "=",
    "VALUE REPORTED": 6.64
  }
]

These measurements were taken from ChEMBL document CHEMBL4321792.
